# inhibition listing for each entry below
test: inhibition of PEG-3 promoter activity – cell-based, HeLa, luciferase luminescence, primary screen (AID 588405); conditions: HeLa PEG-Prom luciferase reporter, overnight, at 20 µM, stronger effect = higher value
Screen size: about 360,000 compounds; about 6,200 (1.7%) were called active. Only a selection was taken, and actives are over-represented in it overall.
Express it in %; write the number only.

The cases that follow already have their inhibition on record.
COc1ccc(CCNC(=O)CN(c2ccccc2)S(C)(=O)=O)cc1OC; 18.5
OC(c1ccc(Cl)cc1)c1ncc(-c2ccc(Cl)cc2)[nH]1 (stereo not given); -29.5
COc1ccc(-c2nnc(SC(=O)N3c4ccccc4Sc4ccccc43)o2)cc1; 51.3

q: Query: inhibition; subject: CCOC(=O)c1cc(-c2sc(NC(=O)c3ccccc3)nc2C)n(Cc2ccccc2)n1
a: -5.67

q: One more compound: Cc1ccc(C)c(S(=O)(=O)N2CCN(c3ncnc4sccc34)CC2)c1
a: 58.5

q: Try this compound too: COc1ccc(C(CCN(Cc2ccc(OC)c(OC)c2)C(=O)CCl)c2ccccc2)cc1 (stereo not given)
a: 105

q: Same question for COc1ccc(-c2nnc(SC(C)C(=O)NC3CC3)o2)cc1 (stereo not given) please.
a: -27.6

q: Also, Cc1sc2ncn(CC(=O)NCCCC(=O)N(C)Cc3ccccc3)c(=O)c2c1C please.
a: 8.27

q: Same lookup for COc1ccc(-c2csc3ncnc(N4CCN(S(=O)(=O)c5ccccc5C#N)CC4)c23)cc1 , please.
a: 33.6

q: Now consider CCc1cccc(C)c1NC(=S)N(CCCN1CCN(C)CC1)Cc1cccs1 and answer again.
a: 12

---

assay: inhibition of PEG-3 promoter activity – cell-based, HeLa, luciferase luminescence, primary screen (AID 588405); conditions: HeLa PEG-Prom luciferase reporter, overnight, at 20 µM, stronger effect = higher value
The whole screen tested about 360,000 compounds, of which about 6,200 (1.7%) were called active. The sample as a whole holds a higher share of actives than the screen did.
measurement-name: inhibition (%)
Output spec: scalar in %, unitless text.

q: For the compound O=S1(=O)CC(N2CCN(c3ccccn3)CC2)CN1Cc1ccc(F)cc1 (stereo not given) , what inhibition is on record?
a: 10.9

---

assay: inhibition of PEG-3 promoter activity – cell-based, HeLa, luciferase luminescence, primary screen (AID 588405); settings: HeLa PEG-Prom luciferase reporter, overnight, at 20 µM, stronger effect = higher value
Screen size: about 360,000 compounds; about 6,200 (1.7%) were called active. Shown is part of a subset that was picked to be rich in actives.
measurement-name: inhibition (%)
Please respond with the number in % and leave the unit unwritten.

Below: 5 compounds and their reported inhibition.
CCOc1ccc2[nH]c(=S)sc2c1; -57
C=CC[C@@H](CC(=O)N[C@H](CO)Cc1ccccc1)C(=O)N[C@H](C)COC(=O)[C@@H](CC=C)Cc1ccc(F)cc1; 12.6
CCOc1ccc2nc(Cl)c(C3CC(c4ccccc4)=NN3C(=O)c3cccs3)cc2c1 (stereo not given); 55.1
Cn1c(Cc2csc(N)n2)nnc1SC/C=C/c1ccccc1; -0.48
Cc1ccc(Cn2c(C)c(C(=O)NCc3ccccc3C(F)(F)F)sc2=O)cc1; 18.5

Please examine the following record next.
q: State the recorded inhibition for this entry: OCCc1ccc(NCCc2ccco2)cc1
a: -123

---

assay: inhibition of PEG-3 promoter activity – cell-based, HeLa, luciferase luminescence, primary screen (AID 588405); conditions: HeLa PEG-Prom luciferase reporter, overnight, at 20 µM
About 6,200 (1.7%) of roughly 360,000 compounds were called active.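 The calls were made as follows: active = inhibition of at least 50% at 20 µM; inactive = the rest.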 The list comes from a sample in which actives are over-represented; it also holds close analogues and randomly drawn compounds.
Give your call using only these classes: true (active), false (inactive)

These recorded examples may help you get a feel for the data.
CCN(CC)CCCNC(=O)Cn1cnc2sc(C)c(S(=O)(=O)N3CCN(c4ncccn4)CC3)c2c1=O; false
NCCCCC(C(=O)O)N(C(=O)OCc1ccccc1)C(=O)OCc1ccccc1 (stereo not given); false
CCc1nc2c(OCC(N)=O)cccn2c1N(C)C(=O)c1ccc(OC)cc1; false
CCN(CC)CCNC(=O)c1sc2ncn(CC(=O)Nc3ccc(C)c(Cl)c3)c(=O)c2c1C; true
O=C1Nc2cc(C(=O)N3CCC(N4CCCCC4)CC3)ccc2S/C1=C\c1ccccc1; true

q: Could you check what this test reported for COc1ccc(-c2cc3c(c4c2ccn4C)C2CCC3C2)cn1 (stereo not given) ?
a: false

q: Also check CCN(CC)CCNC(=O)Cn1cnc2sc(C)c(S(=O)(=O)N3CCOCC3)c2c1=O
a: false

q: Moving on to the next molecule: CC(C)COC(=O)C1C2C=CC3(CN(C(C)c4ccc(Br)cc4)C(=O)C13)O2 (stereo not given)
a: false

q: Request: O=C(COC(=O)CNC(=O)c1ccco1)Nc1ccc(F)cc1
a: false

q: How about CCOC(=O)c1ccc(NC(=O)CNC(=O)c2ccco2)cc1 ?
a: true

---

assay: inhibition of PEG-3 promoter activity – cell-based, HeLa, luciferase luminescence, primary screen (AID 588405); details: HeLa PEG-Prom luciferase reporter, overnight, at 20 µM
The whole screen tested about 360,000 compounds, of which about 6,200 (1.7%) were called active.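 Rule for the calls: active = inhibition of at least 50% at 20 µM; inactive = the rest.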 The list comes from a sample in which actives are over-represented; it also holds close analogues and randomly drawn compounds.
Hello, when you answer, please use one of the following outcomes: active, inactive

Cc1cccc(C)c1-n1nnnc1C(CCc1ccccc1)N1CCN(C/C=C/c2ccccc2)CC1 (stereo not given); inactive

q: Assay outcome for Cc1c(C)n(Cc2ccc(Cl)cc2)c2ccc(C(=O)NCCCN3CCOCC3)cc12 : what was it?
a: inactive

q: Field entry: CCN1CCN(CCNC(=O)c2ccc(/C=C3/Sc4ccccc4N(Cc4cccc(C)c4)C3=O)cc2)CC1
a: active

---

test: inhibition of PEG-3 promoter activity – cell-based, HeLa, luciferase luminescence, primary screen (AID 588405); details: HeLa PEG-Prom luciferase reporter, overnight, at 20 µM
Hit rate of the full screen: of about 360,000 compounds, about 6,200 (1.7%) were called active.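 Rule for the calls: active = inhibition of at least 50% at 20 µM; inactive = the rest.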 The list comes from a sample in which actives are over-represented; it also holds close analogues and randomly drawn compounds.
Valid outcomes are listed here; reply with one: active, inactive

Some solved cases for reference:
COc1cccc(CNc2nc(NCc3ccccc3OC)nc3ccsc23)c1; inactive
COc1cc([N+](=O)[O-])ccc1NC(=O)COC(=O)CCOc1ccc(C)cc1; active
CCn1c(SCC(=O)Nc2ccc(C)cc2)nc2nc3c(cc2c1=O)CCCC3; inactive
Clc1ccc(-c2cc(C3CCNCC3)[nH]n2)c(Cl)c1; active
CCN(CC)CCCNC(=O)c1ccc2c(=O)n(Cc3ccc4c(c3)OCO4)c(=S)[nH]c2c1; active

q: Per the assay record, what outcome was assigned to O=C(CCn1c(=S)[nH]c2cc3c(cc2c1=O)OCO3)NCc1ccc(Cl)cc1 ?
a: inactive

q: How about Clc1ccccc1Nc1nc(NCc2cccs2)nc2ccsc12 ?
a: inactive

---

test: inhibition of PEG-3 promoter activity – cell-based, HeLa, luciferase luminescence, primary screen (AID 588405); settings: HeLa PEG-Prom luciferase reporter, overnight, at 20 µM
Screen size: about 360,000 compounds; about 6,200 (1.7%) were called active.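 How the source made its calls: active means inhibition of at least 50% at 20 µM; inactive means the rest.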 Shown is part of a subset that was picked to be rich in actives.
Thanks in advance; please answer with one of these: active, inactive

CCC(C)Sc1nc2c(c(=O)[nH]c(=O)n2C)n1CC(O)COc1cccc2ccccc12 (stereo not given); inactive
CC(Oc1cc2oc(=O)c3c(c2cc1Cl)CCCC3)C(=O)NCc1ccncc1 (stereo not given); inactive
CC1(C(=O)Nc2cccnc2)Cc2c(-c3ccccc3)ccnc2O1 (stereo not given); inactive
CC(C)c1ccccc1OCC(O)CN(CC(O)COc1cccc2ccccc12)C(C)C (stereo not given); active

Next item in the queue.
q: Please state the recorded outcome for this compound: CN(Cc1ccc(F)cc1)C(=O)CN1C(=O)c2ccccc2S1(=O)=O
a: inactive

---

test: inhibition of PEG-3 promoter activity – cell-based, HeLa, luciferase luminescence, primary screen (AID 588405); conditions: HeLa PEG-Prom luciferase reporter, overnight, at 20 µM, stronger effect = higher value
In all, about 360,000 compounds went through this assay and about 6,200 (1.7%) were called active. Many of the other results were omitted from the sample, so actives are more common in it than they were.
measurement-name: inhibition

Some compounds with known inhibition results, for comparison:
COC(=O)Cc1cnc(NC(=O)CSc2nc(C(C)C)cc(=O)[nH]2)s1; 1.1% (inactive)
CC(C)C[C@H]1CN([C@@H](Cc2ccccc2)CN2CCC[C@@H]2CN2C(=O)C(=O)NC[C@@H]2Cc2ccc(O)cc2)C(=O)C(=O)N1CCc1ccccc1; -8.17% (inactive)

q: Record request: inhibition value, item C/C(=N\Nc1nc(Nc2ccccc2)nc(N2CCOCC2)n1)c1cccs1
a: 7.28% (inactive)

q: Another: O=C(CSc1nc(Nc2ccccc2)nc(N2CCOCC2)n1)Nc1cc(Cl)ccc1O
a: 86.5% (active)

q: Moving on to the next compound: O=C(Nc1ccc(Cl)cc1)C1Cc2c(-c3ccc4c(c3)OCO4)ccnc2O1 (stereo not given)
a: 29% (inactive)

// provenance: PubChem BioAssay AID588405
